These data points were gathered from patent US20140235701.

Reported IC50 values for a set of binders
target under test: T1, NT-4 (neurotrophin-4) (Homo sapiens, UniProt P34130 P34130:81-210)
T1 sequence: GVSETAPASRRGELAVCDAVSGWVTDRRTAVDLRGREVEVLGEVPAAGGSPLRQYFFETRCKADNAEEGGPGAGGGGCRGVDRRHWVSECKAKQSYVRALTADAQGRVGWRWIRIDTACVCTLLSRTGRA
assay comment: cell_activity; TF-1
measurement setup: tags: R&D Systems; chain copies: 2
assay metric: IC50 (nM)

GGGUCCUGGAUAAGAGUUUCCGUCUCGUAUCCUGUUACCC (ssRNA, as 82(25) except 5' PEG80TS4 instead of idT) [SEQ ID NO: 82(55)] :: 14.3
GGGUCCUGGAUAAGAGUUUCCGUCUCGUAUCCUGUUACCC (ssRNA, as 82(1) except 2'-OMe C32) [SEQ ID NO: 82(13)] :: 3.06
